assay: Dissolution rate test in caprylic/capric triglyceride; type: physicochemical; conditions: 4.0 g powder in 96.0 g caprylic/capric triglyceride, stirring, 25° C., visual inspection
observed-property: dissolution time (min)

>>> measured_number("CCCCC(CC)COC(=O)c1ccc(Nc2nc(Nc3ccc(C(=O)OCC(CC)CCCC)cc3)nc(Nc3ccc(C(=O)OCC(CC)CCCC)cc3)n2)cc1 (centres unmarked) [Sample 1A]")
15
>>> measured_number("CCCCC(CC)COC(=O)c1ccc(Nc2nc(Nc3ccc(C(=O)OCC(CC)CCCC)cc3)nc(Nc3ccc(C(=O)OCC(CC)CCCC)cc3)n2)cc1 (centres unmarked) [Sample 3A]")
15
>>> measured_number("CCCCC(CC)COC(=O)c1ccc(Nc2nc(Nc3ccc(C(=O)OCC(CC)CCCC)cc3)nc(Nc3ccc(C(=O)OCC(CC)CCCC)cc3)n2)cc1 (centres unmarked) [Sample 2A]")
15
